# key: entry, value: melting point

Observe how each entry below is paired with its result.
compound: O=C(Nc1nc2ccc(OCc3c(Cl)cccc3Cl)cc2[nH]1)C1CC1 [Example 7]
melting point: 133 to 135 °C
//
compound: CC(Oc1cc2sc(NC(=O)NCCCC(C)(C)OC(N)=O)nc2cc1F)c1c(Cl)ccc(F)c1Cl (centres unmarked) [Example 87]
melting point: 230 °C

Record CCN(CC)C(COC(N)=O)c1nc2cc(F)c(OC(C)c3c(Cl)ccc(F)c3Cl)cc2s1 (centres unmarked) [Example 71] . Reported melting point: 184 to 186 °C

Recorded melting point (compound COC(COC(N)=O)c1nc2cc(F)c(OC(C)c3c(Cl)ccc(F)c3Cl)cc2s1 (centres unmarked) [Example 72] ): 200 to 205 °C

Short answer for CC(Oc1cc2[nH]c(NC(=O)NCCN3CCOCC3)nc2cc1F)c1c(Cl)cccc1Cl (centres unmarked) [Example 5] : melting point was 210 to 216 °C

// sample CC(Oc1cc2sc(NC(=O)NCCCN)nc2cc1F)c1c(Cl)ccc(F)c1Cl (centres unmarked) [Example 128] , its melting point was 163 °C

Per the record, CC(Oc1cc2sc(NC(=O)NCCOCc3ccccc3)nc2cc1F)c1c(Cl)ccc(F)c1Cl (centres unmarked) [Example 97] has melting point of 170 °C

Lab book: melting point of COCCNC(=O)Nc1nc2cc(F)c(OC(C)c3c(Cl)ccc(F)c3Cl)cc2s1 (centres unmarked) [Example 81] noted as 176 to 179 °C

----------
Each item that follows carries a reported melting point.
Hi! Could you send only the number? It should be in °C, unit omitted.

# annotated cases, reported melting point shown
molecule: O=C(Nc1nc2cc(F)c(OCc3c(Cl)cccc3Cl)cc2s1)C1CC1 [Example 22]
reported.property: melting point
uom: °C
recorded.value: 215
--
molecule: O=C(NCCN1CCOCC1)Nc1nc2ccc(OCc3cc(Cl)nc(Cl)c3)cc2s1 [Example 16]
reported.property: melting point
uom: °C
recorded.value: 193
--
molecule: O=C(NCCN1CCOCC1)Nc1nc2ccc(OCc3c(F)cccc3F)cc2s1 [Example 13]
reported.property: melting point
uom: °C
recorded.value: 219

Turning now to a further molecule:
# molecule O=C(NCCN1CCOCC1)Nc1nc2ccc(OCc3c(F)cccc3Cl)cc2s1 [Example 15] ; its melting point = 210

----------
Reported IC50 values follow for various molecules
molecular target: c-MET (Homo sapiens, UniProt P08581); construct: The recombinant DNA His-Tev-MET (956-1390) in pFastBac(Invitrogen); His (N, cleaved yes); Tev (TEV protease site) (N, cleaved yes); assay: Test A: HTRF Met test in 96-well format
Sequence (P08581 956-1390): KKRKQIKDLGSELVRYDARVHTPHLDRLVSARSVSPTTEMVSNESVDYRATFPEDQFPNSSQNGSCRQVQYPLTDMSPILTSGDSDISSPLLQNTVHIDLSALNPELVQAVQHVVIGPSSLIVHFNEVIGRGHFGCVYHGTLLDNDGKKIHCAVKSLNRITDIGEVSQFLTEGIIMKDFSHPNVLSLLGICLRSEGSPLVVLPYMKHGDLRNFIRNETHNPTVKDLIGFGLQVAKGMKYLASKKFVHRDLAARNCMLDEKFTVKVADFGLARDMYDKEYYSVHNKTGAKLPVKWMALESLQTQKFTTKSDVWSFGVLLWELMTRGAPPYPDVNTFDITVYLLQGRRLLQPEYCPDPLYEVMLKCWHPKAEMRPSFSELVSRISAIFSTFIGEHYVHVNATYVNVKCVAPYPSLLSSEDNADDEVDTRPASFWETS

Below: 5 molecules and their reported IC50.
molecule: CCN(CC)CCNC(=O)Nc1nc2ccc(OC(C)c3c(Cl)ccc(F)c3Cl)cc2s1 (stereo not shown) [Example 82]
recorded.value: < 100 nM
//
molecule: CC(Oc1ccc2nc(NC(=O)NCCCN3CCCCC3)sc2c1)c1c(Cl)ccc(F)c1Cl (stereo not shown) [Example 44]
recorded.value: < 100 nM
//
molecule: CC(Oc1ccc2nc(NC(=O)NCCN3CCOCC3)sc2c1)c1c(Cl)cccc1Cl (stereo not shown) [Example 17]
recorded.value: < 100 nM
//
molecule: CC(Oc1cc2sc(NC(=O)NCCCN3CCCC3=O)nc2cc1F)c1c(Cl)ccc(F)c1Cl (stereo not shown) [Example 78]
recorded.value: < 100 nM
//
molecule: CC(Oc1cc2sc(NC(=O)NCCN3CCOCC3)nc2cc1F)c1c(F)ccc(Cl)c1Cl (single isomer, unassigned) [Example 113]
recorded.value: < 100 nM

Moving on to the next molecule.
// field: IC50; key: CC(Oc1cc2[nH]c(NC(=O)NCCN3CCOCC3)nc2cc1F)c1c(Cl)cccc1Cl (stereo not shown) [Example 5] ; value = < 100 nM
